Origin of measurements: paper PMC12416549

Listing of recorded apparent Kd (screen) by entry.
- TARGET_DESC: T1, TNFR1 (Homo sapiens, UniProt P19438)
- T1 chain: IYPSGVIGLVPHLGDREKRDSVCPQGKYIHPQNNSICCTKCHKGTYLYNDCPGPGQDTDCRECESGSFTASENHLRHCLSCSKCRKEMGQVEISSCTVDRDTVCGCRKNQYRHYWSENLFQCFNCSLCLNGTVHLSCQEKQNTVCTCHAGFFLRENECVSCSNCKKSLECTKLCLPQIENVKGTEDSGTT
- ASSAY_EXPLANATION: yeast display SC50
Provide only the numeric value, understood in nM.

Below, 3 binders whose answers are already recorded.
INSERT INTO results (binder, numeric_readout) VALUES
  ('K72H (designed binder) MTLQELLREEALRRAEAEAFRYALELLAEKFPEQKEYLLDLAEEIESQIRSLSGVDVEDVRKFLDKEWAWVHELLAEHPAELAEVEAARAARLAELRAEVEAKVAA', 0.49),
  ('L38H (designed binder) MTLQELLREEALRRAEAEAFRYALELLAEKFPEQKEYHLDLAEEIESQIRSLSGVDVEDVRKFLDKEWAWVKELLAEHPAELAEVEAARAARLAELRAEVEAKVAA', 0.79),
  ('D56R (designed binder) MTLQELLREEALRRAEAEAFRYALELLAEKFPEQKEYLLDLAEEIESQIRSLSGVRVEDVRKFLDKEWAWVKELLAEHPAELAEVEAARAARLAELRAEVEAKVAA', 2.25);

Query: Consider the binder shown here: L75Y (designed binder) MTLQELLREEALRRAEAEAFRYALELLAEKFPEQKEYLLDLAEEIESQIRSLSGVDVEDVRKFLDKEWAWVKELYAEHPAELAEVEAARAARLAELRAEVEAKVAA What is its recorded apparent Kd (screen)?
Result: 0.718
